Hello, the source for this data is ChEMBL document CHEMBL1770105, in case you need it.

measurementNotes: Half life in Sprague-Dawley rat at 1 mg/kg, iv and 3 mg/kg, po
Type: ADME, organism-based
condition: in vivo
valueKind: half-life (h)

INSERT INTO assay_data (chemsmiles, valuekind, value) VALUES
  ('COc1cc(Cl)c(-c2c(C)nn3c(NCCNC4CCOCC4)cc(C)nc23)c(Cl)c1', 'half-life', 1.2);

====

targetEntity: Neuropeptide Y receptor type 1 (Homo sapiens)
Sequence (P25929 whole entry): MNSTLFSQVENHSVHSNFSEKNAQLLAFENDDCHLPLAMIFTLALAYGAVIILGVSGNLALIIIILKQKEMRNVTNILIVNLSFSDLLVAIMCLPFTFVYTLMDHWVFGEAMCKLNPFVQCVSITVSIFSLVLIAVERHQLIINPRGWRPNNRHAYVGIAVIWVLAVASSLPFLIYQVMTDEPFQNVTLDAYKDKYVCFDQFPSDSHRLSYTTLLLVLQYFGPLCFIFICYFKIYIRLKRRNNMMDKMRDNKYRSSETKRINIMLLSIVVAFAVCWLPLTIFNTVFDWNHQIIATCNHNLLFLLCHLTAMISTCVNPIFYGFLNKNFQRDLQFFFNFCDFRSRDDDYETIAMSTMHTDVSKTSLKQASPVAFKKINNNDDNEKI
measurementNotes: Antagonist activity at NPY Y1 receptor in human SK-N-MC cells assessed as inhibition of NPY-induced calcium mobilization by FLIPR assay
valueKind: IC50 (nM)

INSERT INTO results (chemsmiles, targetentity, valuekind, value) VALUES
  ('CCCOc1cc(Cl)c(-c2c(C)nn3c(NCCNC4CCOCC4)cc(C)nc23)c(Cl)c1', 'Neuropeptide Y receptor type 1 (Homo sapiens)', 'IC50', 207),
  ('COc1cc(Cl)c(-c2c(C)nn3c(NCCNC4CCOCC4)cc(C)nc23)c(Cl)c1', 'Neuropeptide Y receptor type 1 (Homo sapiens)', 'IC50', 7),
  ('CCOc1cc(Cl)c(-c2c(C)nn3c(NCCNC4CCOCC4)cc(C)nc23)c(Cl)c1', 'Neuropeptide Y receptor type 1 (Homo sapiens)', 'IC50', 15);

====

measurementNotes: Plasma clearance in Sprague-Dawley rat at 1 mg/kg, iv and 3 mg/kg, po
Format: ADME, organism-based
valueKind: clearance (mL/min/kg)

INSERT INTO measurements (chemsmiles, valuekind, value) VALUES
  ('CCOc1cc(Cl)c(-c2c(C)nn3c(NCCNC4CCOCC4)cc(C)nc23)c(Cl)c1', 'clearance', 28),
  ('CCCOc1cc(Cl)c(-c2c(C)nn3c(NCCNC4CCOCC4)cc(C)nc23)c(Cl)c1', 'clearance', 25),
  ('COc1cc(Cl)c(-c2c(C)nn3c(NCCNC4CCOCC4)cc(C)nc23)c(Cl)c1', 'clearance', 45);

====

Measured Knockout-to-FVB ratio of unbound brain/plasma ratio accompanies every entry in the list below.
measurementNotes: Ratio of fraction unbound drug level in brain to plasma in Mdr1a/1b knockout mouse to FVB mouse at 5 mg.kg, sc after 0.5 hrs
Format: ADME, organism-based
valueKind: Knockout-to-FVB ratio of unbound brain/plasma ratio

INSERT INTO measurements (compound, value) VALUES
  ('COc1cc(Cl)c(-c2c(C)nn3c(NCCNC4CCCCC4F)cc(C)nc23)c(Cl)c1 (mixture of isomers)', 8),
  ('COc1cc(Cl)c(-c2c(C)nn3c(NCCNC4CCOCC4)cc(C)nc23)c(Cl)c1', 9),
  ('COc1cc(Cl)c(-c2c(C)nn3c(NCC(C)NC4CCOCC4)cc(C)nc23)c(Cl)c1 (racemic)', 10),
  ('COc1cc(Cl)c(-c2c(C)nn3c(NCCNCCF)cc(C)nc23)c(Cl)c1', 4),
  ('COc1cc(Cl)c(-c2c(C)nn3c(NCC(C)(C)NC4CCOCC4)cc(C)nc23)c(Cl)c1', 4),
  ('COc1cc(Cl)c(-c2c(C)nn3c(NCCNCC(F)F)cc(C)nc23)c(Cl)c1', 2);
